Experiment: Stability test under stress conditions (PXRD, DSC, appearance, HPLC)
Conditions: stress conditions; start to 4 weeks
Kindly state Content Change for each of the entries shown.
Give bare numbers, in %.

Would you please look over these solved cases?
smiles.text: C=CC(=O)Nc1cc(Nc2nccc(-n3cc(CN(C)C)c(-c4ccccc4)n3)n2)c(OC)cc1N1CCOCC1.O=C(O)CC(O)(CC(=O)O)C(=O)O
reading: −1.4

smiles.text: C=CC(=O)Nc1cc(Nc2nccc(-n3cc(CN(C)C)c(-c4ccccc4)n3)n2)c(OC)cc1N1CCOCC1.CCS(=O)(=O)O
reading: −7

Now turn to the next compound.
Q. Bench note: what Content Change did `C=CC(=O)Nc1cc(Nc2nccc(-n3cc(CN(C)C)c(-c4ccccc4)n3)n2)c(OC)cc1N1CCOCC1.Cl` show?
A. −2.2
